- testedSystem: Oxytocin receptor (Homo sapiens)
- protocol: Ratio of EC50 for agonist activity at recombinant human Gi/Go-coupled OTR expressed in CHOK1 cells in presence of 10% FBS to EC50 for agonist activity at recombinant human Gi/Go-coupled OTR expressed in CHOK1 cells in absence of 10% FBS
- Assay type: cell-based
Numbered stars: 1 amine (or outer) side, 2 acyl side, 3 side chain; on linkers, the order of the positions; unused ones are H or OH. Bridge positions count the residues as written; N and C are the ends. Peptide text beside a SMILES is read from it. * marks the point of attachment. X4 = O=C(O)CCCCCCCCCCCCCCCCC(=O)NCCOCCOCCOCCNC(=O)C*; X3 = CCCCCCCCCCCCCC(=O)NCCOCCOCCNC(=O)C*; X2 = O=C(CCC[*:2])[*:1]
What Ratio EC50 was measured for each of the following?
Form rule: numeric answer, no unit written next to it.

Summary for this compound, CC[C@H](C)[C@@H]1NC(=O)[C@H](Cc2ccc(O)cc2)NC(=O)CCCSC[C@@H](C(=O)NCC(=O)N[C@@H](CSCC(=O)NCCOCCOCCOCCNC(=O)CCCCCCCCCCCCCCCCC(=O)O)C(=O)NCC(N)=O)NC(=O)[C@H](CC(N)=O)NC(=O)[C@H](CCC(N)=O)NC1=O (YIQNCGC(X4)G-NH2; linker N-5 via X2) : Ratio EC50 is 50.9

Summary for this compound, CCCCCCCCCCCCCC(=O)NCCOCCOCCNC(=O)CSC[C@H](NC(=O)CNC(=O)[C@@H]1CSCCCC(=O)N[C@@H](Cc2ccc(O)cc2)C(=O)N[C@@H]([C@@H](C)CC)C(=O)N[C@@H](CCC(N)=O)C(=O)N[C@@H](CC(N)=O)C(=O)N1)C(=O)NCC(N)=O (YIQNCGC(X3)G-NH2; linker N-5 via X2) : Ratio EC50 is 3.6
